Test: Effect of a single 2 g dose of SYM-1219 on the plasma pharmacokinetics of EE2 and NET in healthy female subjects
Type: in vivo, human
Details: female, human, plasma, Group B2 Period 2: SYM-1219 2 grams on Day 1, EE2/NET on Day 2; read-out: NET AUC0-∞, Mean
Method: Methods: Fifty-four (54) healthy female subjects, ages 18-65, received EE2/NET alone and in combination, where SYM-1219+EE2/NET were co-administered on Day 1 (Group B1; N=27) or SYM-1219 on Day 1 and EE2/NET on Day 2 (Group B2; N=27). Serial blood samples were drawn to measure plasma concentrations of EE2/NET. […] Safety was evaluated by recording of adverse events, vital signs, ECGs and standard laboratory tests.
observation.type: AUC(0-inf)
# number then unit; no other words

Query: Please look up its AUC(0-inf): C#C[C@]1(O)CC[C@H]2[C@@H]3CCC4=CC(=O)CC[C@@H]4[C@H]3CC[C@@]21C [NET, norethindrone]
Reply: 71.5 ng·h/mL

---

Assay: Effect of a single 2 g dose of SYM-1219 on the plasma pharmacokinetics of EE2 and NET in healthy female subjects
Type: in vivo, human
Conditions: female, human, plasma, Group B1 Period 2: EE2/NET followed by SYM-1219 2 grams on Day 1; read-out: NET AUC0-t, Median
Procedure: Methods: Fifty-four (54) healthy female subjects, ages 18-65, received EE2/NET alone and in combination, where SYM-1219+EE2/NET were co-administered on Day 1 (Group B1; N=27) or SYM-1219 on Day 1 and EE2/NET on Day 2 (Group B2; N=27). Serial blood samples were drawn to measure plasma concentrations of EE2/NET. […] Safety was evaluated by recording of adverse events, vital signs, ECGs and standard laboratory tests.
observation.type: AUC(0-t) (ng·h/mL)
Use ng·h/mL as the unit, but write only the number.

Query: Please look up its AUC(0-t): "C#C[C@]1(O)CC[C@H]2[C@@H]3CCC4=CC(=O)CC[C@@H]4[C@H]3CC[C@@]21C"
Reply: 48.9

---

Assay: Effect of a single 2 g dose of SYM-1219 on the plasma pharmacokinetics of EE2 and NET in healthy female subjects
Assay type: in vivo, human
Settings: female, human, plasma, Group B2 Period 2: SYM-1219 2 grams on Day 1, EE2/NET on Day 2; read-out: EE2 AUC0-t, Geometric Least Squares (LS) Means
observation.type: AUC(0-t)

Query: Please look up its AUC(0-t): "C#C[C@]1(O)CC[C@H]2[C@@H]3CCc4cc(O)ccc4[C@H]3CC[C@@]21C"
Reply: 0.644 ng·h/mL

---

Assay: Effect of a single 2 g dose of SYM-1219 on the plasma pharmacokinetics of EE2 and NET in healthy female subjects
Type: in vivo, human
Settings: female, human, plasma, Group B2 Period 2: SYM-1219 2 grams on Day 1, EE2/NET on Day 2; read-out: NET t1/2, Median (converted)
observation.type: half-life

Query: Please look up its half-life: C#C[C@]1(O)CC[C@H]2[C@@H]3CCC4=CC(=O)CC[C@@H]4[C@H]3CC[C@@]21C [NET, norethindrone]
Reply: 9.19 h

---

Experiment: Effect of a single 2 g dose of SYM-1219 on the plasma pharmacokinetics of EE2 and NET in healthy female subjects
Type: in vivo, human
Conditions: female, human, plasma, Group B2 Period 1: EE2/NET alone; read-out: NET AUC0-t, Median
observation.type: AUC(0-t) (ng·h/mL)
Use ng·h/mL as the unit, but write only the number.

Query: Please look up its AUC(0-t): C#C[C@]1(O)CC[C@H]2[C@@H]3CCC4=CC(=O)CC[C@@H]4[C@H]3CC[C@@]21C [NET, norethindrone]
Reply: 41.7
